Assay: Human HepG2 cell viability assay in 384 well format
Assay type: toxicity, cell-based
Parameters: dose 125 nL, time 70.5 hour; concentration not given beside the values
Details: HepG2 cells, read-out: Inhibition
Please respond with reported cytotoxicity at 70.5 h for every item in the list.
Give bare numbers, in %.

Guide cases for cytotoxicity at 70.5 h, answers given:
COMPOUND | OBSERVED_VALUE
CS(=O)(=O)N1CCN(C(=O)CCC2CCCO2)CC1 (configuration not stated) | -14.1
CC(CC(=O)c1ccco1)NC(=O)c1ccccn1 (configuration not stated) | -10.8
CCOCCN1CCN(CCOC)CC1C (configuration not stated) | -8.63
Cc1nccnc1N1CC[C@@H](NC(=O)c2cnccn2)[C@H](O)C1 | -8.55
CCOCC(=O)N1CCC(C(O)c2ccc(F)cc2)CC1 (configuration not stated) | 2.49

Answer for every listed entry: what is its cytotoxicity at 70.5 h? The entries follow.
1. CC(C)(C)c1ncc(CNCC2CCCn3ccnc32)s1 (configuration not stated)
2. CCn1c(CC2CCN(C(=O)C3CC(C(C)C)=NO3)CC2)nn(C)c1=O (configuration not stated)
3. CCCC(=O)N1CCCC(Cn2cc(-c3ccc(F)cc3)nn2)C1 (configuration not stated)
4. CC(C)(C)n1ncc2c1CCCC2NCc1ccsc1 (configuration not stated)

[-4.17, -6.72, -11.1, -0.727]

Respectfully, I request cytotoxicity at 70.5 h for each entry included below.
1. Cc1nc(COCC2CNCc3nccn3C2)cs1 (configuration not stated)
2. O=C(Cc1ccccn1)N1C[C@H]2CN(Cc3ccccn3)C[C@H]2C1
3. CC(=O)NCCNC(=O)c1cnc(-c2ccccc2)nc1
4. CC(Cn1cccn1)NC(=O)N(C)Cc1ccsc1 (configuration not stated)
5. Cc1n[nH]c(C)c1NC(=O)CN1CCOC(Cn2cccn2)C1 (configuration not stated)

1. 7.13
2. -10
3. -17.1
4. -16.6
5. 0.504

Provide cytotoxicity at 70.5 h for all items below, preserving their order.
1. COc1ccccc1C(=O)NCCCN1CCCC1C(=O)N(C)C (configuration not stated)
2. CCOc1cncc(NCCc2nnc3ccccn23)n1
3. CCC(CC)C(=O)N1CCC2(C1)CN(c1ccccc1)C(=O)CN2C (configuration not stated)

[-14.3, -4.67, -20.2]

###

Assay: Human HepG2 cell viability assay in 384 well format
Assay type: toxicity, cell-based
Parameters: dose 125 nL, time 70.5 hour; concentration not given beside the values
Conditions: HepG2 cells, read-out: Inhibition
ATTRIBUTE_MEASURED: cytotoxicity at 70.5 h (%)
One number for each entry, in %.

Known results for compounds:
COMPOUND | cytotoxicity at 70.5 h (%)
CC(C)c1nc(CN(C)C(=O)[C@H](N)Cc2ccc(Cl)cc2)cs1 | 2.45
Cc1ccc(CN2C[C@@H](N(C)C)[C@H]3OCCC[C@H]32)o1 | 1.56
Cc1nc(C2CCCN(c3ncc(Br)cn3)C2)no1 (stereo not drawn) | -13.9
CCn1c(N)nc2cc(C(=O)NCCNc3ncccc3C)cnc21 | -3.99
Cc1cnn(CC2CN(Cc3cccc(C(=O)N(C)C)c3)CCO2)c1 (stereo not drawn) | 3.78

I would be grateful if you could provide cytotoxicity at 70.5 h for each of the following entries.
1. CC(C)CC1COCCN1C(=O)Cc1cccs1 (stereo not drawn)
2. CC(C)c1ncc2c(n1)CN(Cc1cccc(C#N)c1)CC2
3. CCN(CC)CC[C@H]1CN(C(=O)CC(C)(C)C)CC[C@H]1CC(=O)O
4. c1cncc(OCC2CN(Cc3ccco3)Cc3nccn3C2)c1 (stereo not drawn)
5. CCCc1nc(CNC(=O)Cc2csc(C)n2)cs1
6. Cc1noc(C)c1CN1CCOC(CNc2cccnn2)C1 (stereo not drawn)

[-4.92, 4.14, -4.24, 21.3, 0.825, 23.1]

Fill in cytotoxicity at 70.5 h for each of the 6 compounds listed.
1. Cc1cc(C)nc(C2CCN(C(=O)CCn3ncc4ccccc43)C2)n1 (stereo not drawn)
2. Cc1cc(CN2CC[C@H]3C(=O)N(c4ccccc4)CCO[C@H]3C2)no1
3. COc1ccc(C2SCC(=O)Nc3ccsc32)cc1OC (stereo not drawn)
4. CCCc1csc(-c2ccc(S(C)(=O)=O)cc2)n1
5. CCNC(=O)c1nnc2ccc(N3CCOCC3)cc2n1
6. Cc1cc(C)c(CNC(=O)NCc2ccc(F)c(C)c2)c(=O)[nH]1

[2.78, 23.6, -11.5, -1.59, 12.6, -0.902]

Go through the list and state cytotoxicity at 70.5 h for each entry.
1. Cc1cc(NC(=O)CC2(Cn3cnnn3)CCCCC2)nn1C
2. COc1nn(C)c2c1CCCN(C(=O)c1cccn1C)C2
3. CSCCNc1ccc(C(=O)N(C)Cc2ccc3ccccc3n2)cn1
4. COCC1CN(S(C)(=O)=O)Cc2ncn(CC3CC3)c21 (stereo not drawn)
5. CS(=O)(=O)CCC(=O)N1CCC(c2ccc(F)c(F)c2)CC1
6. O=C(Nc1ccc(N2CCCC2)nc1)N1CCc2ccccc2C1

1. -23.2
2. -41.9
3. -12.8
4. -6.83
5. 2.26
6. 3.91

###

Exercise: for every item that follows, state its recorded cytotoxicity at 70.5 h.
Assay: Human HepG2 cell viability assay in 384 well format
Assay type: toxicity, cell-based
Set-up: dose 125 nL, time 70.5 hour; concentration not given beside the values
Settings: HepG2 cells, read-out: Inhibition
One number for each entry, in %.

Answered examples (3):
COMPOUND | ATTRIBUTE_MEASURED | UNIT_OF_MEASUREMENT | OBSERVED_VALUE
CCCSCC(=O)N1CCN(c2ccc(C)cc2)CC1C (centres undefined) | cytotoxicity at 70.5 h | % | -14.9
CC(C)CNC(=O)NC(=O)CNc1ccccc1SCC(C)C#N (centres undefined) | cytotoxicity at 70.5 h | % | -2.52
c1cncc(CN2CCCC3(COCCN(c4cncnc4)C3)C2)c1 (centres undefined) | cytotoxicity at 70.5 h | % | -6.01

Record cytotoxicity at 70.5 h per entry; entries follow.
1. CC(=O)N1CC(=O)N(c2cnn(C)c2)CC12CCN(CC1CC1)C2 (centres undefined)
2. CN(Cc1ccc(-n2ccnc2)cc1)CC1CCCN1c1cccnn1 (centres undefined)
3. CCn1ccnc1CN1CCN(C(C)C(=O)NC2CCCC2)CC1 (centres undefined)
4. CNc1nc(C)cc(N2CCC(C(=O)O)(n3ccc(C(C)C)n3)CC2)n1

1: 1.31; 2: 23; 3: -4.1; 4: -4.47

I'm hoping you can list cytotoxicity at 70.5 h for every compound here, please.
1. O=C(Cn1cc(C2CC2)nn1)N(Cc1cccs1)CC1CCCO1 (centres undefined)
2. Cc1ccc(O[C@@H]2C[C@H]3CN(Cc4nccn4C)CCN3C2)cc1

10.4
-4.55

Each compound below has a recorded value; state its cytotoxicity at 70.5 h.
1. CSCCc1ccc(NC(=O)NC(C)Cn2cncn2)cc1 (centres undefined)
2. O=C(NCCc1nncn1C1CC1)C1(Cc2ccccc2)CCC1
3. Cc1nn(C)c(C)c1CNCc1cccnc1N1CCOCC1
4. CCNC(=O)c1ccc2ccc(N(CC)CC)n2c1
5. CNC(=O)CCOC(=O)c1cccc(-n2cccn2)c1
6. C[C@@H]1C[C@H]2CN(C(=O)C3=CCCCC3)C[C@H]2O1
7. Cn1nccc1-c1cnc2n1CCC21CCN(C(=O)C2(C)CC2)CC1
8. CCN1CCOCC12CCN(C(=O)c1ccsc1)CC2

1: -2.38; 2: -1.53; 3: -7.44; 4: -8.54; 5: -10.7; 6: -10.1; 7: -11; 8: -7.84

Give me cytotoxicity at 70.5 h for each of these compounds, listed below.
1. CCS(=O)(=O)NC(CCSC)C(=O)Nc1ccc(F)cc1 (centres undefined)
2. C[C@@H]1CN(C(=O)Cn2ccc3ncccc3c2=O)C[C@H](C)O1

1: -85.2; 2: -5.8

Provide reported cytotoxicity at 70.5 h for each item, in the same order as listed.
1. COc1c(C2CCCN2C(=O)c2cnccn2)c(C)nn1C (centres undefined)
2. CN1Cc2ccccc2NC(=O)C12CCNC2 (centres undefined)
3. CC(C)Oc1ncccc1CNC(=O)C1CCCN(C(=O)C2CC2)C1 (centres undefined)
4. CC1(c2[nH]ncc2C(N)=O)CCN(S(=O)(=O)c2ccccc2)CC1
5. CO[C@H]1CN(C(=O)OC(C)(C)C)CC1NCc1cc[nH]c1 (some centres undefined)
6. CCc1nc(C2CCCN(C(=O)CCn3ccccc3=O)C2)no1 (centres undefined)
7. Cc1cnn(CC2CCN(CC(O)c3ccccc3Cl)CC2)c1 (centres undefined)

20.2
-2.63
6.38
-2.57
-20.4
-0.684
-3.1

I need cytotoxicity at 70.5 h for every entry listed below, if you could help.
1. CCN(CC)C(=O)c1ccn(COc2ccc(F)cc2F)n1
2. O=C(C1CCCCC1)N1C[C@H]2CNC[C@H]2C1
3. CC(C)N1CCC(CC(=O)N2CCN(Cc3nccn3C)CC2)CC1

1. -7.67
2. -11
3. -6.78

Record cytotoxicity at 70.5 h per entry; entries follow.
1. CC(c1ccccc1)N(C)C(=O)CNCCn1cccn1 (centres undefined)
2. CCNC(=O)[C@@H]1CN(Cc2ccccc2)C[C@H]1C(=O)c1ccc(F)cc1
3. O=C(Nc1ccncc1)NC1CCN(c2ccccc2OC(F)F)C1 (centres undefined)
4. CC(C)c1nnsc1CN1CCc2[nH]nc(-c3ccc(Cl)cc3)c2C1

-10.3
-0.813
1.15
9.53

Here are 6 compounds. What values of cytotoxicity at 70.5 h were reported for them?
1. O=C(CN(Cc1ccco1)C1CC1)N1CCCCCC1
2. CS(=O)(=O)NCC1OCCc2cn(CC3CC3)nc21 (centres undefined)
3. CN1CCN(CCNC(=O)C(OC2CCCC2)c2ccccc2)CC1 (centres undefined)
4. N#Cc1cccc(CN2C(=O)c3ccccc3CS2(=O)=O)c1
5. Cn1cc(S(=O)(=O)NCC(C)(O)c2ccsc2)cn1 (centres undefined)
6. CN(Cc1cnn(C)c1)C(=O)NCCc1ccc2c(c1)OCO2

-1.39
13
5.3
-2.45
1.13
-1.01
